Measured target: wild-type Pseudomonas sp. strain CBS3 4-HB-CoA thioesterase (Pseudomonas sp., UniProt P56653)
Sequence (P56653 whole entry): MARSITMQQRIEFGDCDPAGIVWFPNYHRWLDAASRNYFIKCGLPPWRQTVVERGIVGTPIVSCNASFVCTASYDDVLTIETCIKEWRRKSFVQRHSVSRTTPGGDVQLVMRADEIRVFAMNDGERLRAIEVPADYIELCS
Type: biochemical

- Molecule: "CC(C)(COP(=O)(O)OP(=O)(O)OC[C@H]1O[C@@H](n2cnc3c(N)ncnc32)[C@H](O)[C@@H]1OP(=O)(O)O)[C@@H](O)C(=O)NCCC(=O)NCCS [CoA, coenzyme A]"
  Kd: "300 µM"

====

Measured target: wild-type Pseudomonas sp. strain CBS3 4-HB-CoA thioesterase (Pseudomonas sp., UniProt P56653)
Assay type: biochemical
pKd: −log10 of the molar value.
Endpoint label: pKd

- Structure: "CC(C)(COP(=O)(O)OP(=O)(O)OC[C@H]1O[C@@H](n2cnc3c(N)ncnc32)[C@H](O)[C@@H]1OP(=O)(O)O)[C@@H](O)C(=O)NCCC(=O)NCCS"
  Endpoint label: "pKd"
  Recorded value: 3.52
